// reported solubility kinetic for each item listed
Settings: buffer; pH 7.4; 200.0 µM
I only need the number, in µg/mL, no unit after it.

Example results:
{"Smiles notation": "Cc1ccc(C(=O)OCC(=O)Nc2ccc(F)c(Cl)c2)o1", "Observed value": 2.9}
{"Smiles notation": "Cc1cccc(OCCCN2CCOCC2)c1C", "Observed value": 25.4}
{"Smiles notation": "O=C(Nc1ccccc1C(F)(F)F)c1ccccc1Br", "Observed value": 39.8}
{"Smiles notation": "Cc1onc(-c2ccccc2)c1C(=O)Nc1sccc1C#N", "Observed value": 23.5}
{"Smiles notation": "CCOc1ccc(NC(=O)c2cc(Cl)nc3ccccc23)cc1", "Observed value": 0.4}

Query: # solubility kinetic lookup, item Cn1c(N)c(C(=O)COC(=O)c2ccc(Cl)nc2)c(=O)n(C)c1=O
Response: 46.2

Query: # solubility kinetic lookup, item O=C(COC(=O)COc1ccc(Cl)cc1)NC1CCCCCC1
Response: 8.1

Query: # solubility kinetic lookup, item Fc1ccc(CNC(=S)NC2CCCCCC2)cc1
Response: 28.3

Query: # solubility kinetic lookup, item CCOC(=O)COc1ccccc1/C=C1\NC(=O)NC1=O
Response: 33

Query: # solubility kinetic lookup, item N[C@H](CSCc1ccccc1)C(=O)Nc1ccc([N+](=O)[O-])cc1
Response: 36.3

====

Conditions: buffer; pH 7.4; 200.0 µM
I'd appreciate it if you could label each record using solubility kinetic and these ranges: class A: < 10 µg/mL; class B: ≥ 10 µg/mL and < 40 µg/mL; class C: ≥ 40 µg/mL

{"Molecule": "CSC1=NCCN1C(=O)Cc1cccc2ccccc12", "Label class": "class B"}

Query: Assign a bin to Cc1cccc(-c2ncc(S(=O)(=O)C(C)(C)C)c(N)n2)c1
Response: class A

Query: Assign a bin to CSc1nc(-c2ccccc2)nc(NC(=O)C(C)C)c1C(C)=O
Response: class A

Query: Assign a bin to COC(=O)c1ccc(Oc2nc(SC)nc(N(C)C)n2)cc1
Response: class A

Query: Assign a bin to COc1ccc(NC(=O)C2CCN(c3cnccn3)CC2)cc1OC
Response: class B

Query: Assign a bin to Cc1ccc(NC(=O)COC(=O)Cn2cnc3ccccc32)c(C)c1
Response: class C

Query: Assign a bin to CC(NC(=O)COC(=O)C1CCCCC1)c1ccccc1 (stereo not given)
Response: class C

Query: Assign a bin to COc1ccc(S(=O)(=O)N(C)CC(=O)NCCN2CCOCC2)cc1
Response: class C

Query: Assign a bin to Cc1cccc(CSc2nc3c(c(=O)n2C)SCC3)c1
Response: class B

====

Conditions: buffer; pH 7.4; 200.0 µM
Measurement kind: solubility kinetic (µg/mL)
I only need the number, in µg/mL, no unit after it.

Example results:
{"Compound": "Cc1ccc(-c2noc(-c3ccno3)n2)cc1", "solubility kinetic [µg/mL]": 2.4}
{"Compound": "Cc1cc2cc(CNC(=O)Cc3ccc([N+](=O)[O-])cc3)ccc2n1C", "solubility kinetic [µg/mL]": 0.3}
{"Compound": "CSc1nc(N(C)C)c2ccccc2n1", "solubility kinetic [µg/mL]": 31.8}

Query: # solubility kinetic lookup, item CC(C)(C)C(=O)CSc1ncccn1
Response: 24.3

Query: # solubility kinetic lookup, item Fc1ccc(NC(=S)Nc2cccc3ccccc23)cc1F
Response: 29.3
